Cited source for all entries: PubChem BioAssay (NCI)

system: TK-10 renal; assay: NCI-60 one-dose screen, 48 h (100 = growth as untreated, 0 = no growth, -100 = all killed); settings: 10 µM unless noted
About 83,000 compounds went through this panel and 20% of them were active in at least one assay; those are over-represented in the sample as a whole.
Measurement Kind: growth (%)
All answers are understood in %, so give the number only.

CCOc1cc2ncc(C#N)c(Nc3ccc(OCc4cccc(F)c4)c(Cl)c3)c2cc1NC(=O)CCCCC1CCSS1 (stereo not given) = 92.2
O=C1/C(=C(/c2ccccc2)N2CCOCC2)Cc2ccccc21 = -16.7
COc1ccc(-c2nc3ccc(-c4nc5ccc(N6CCN(c7ccncc7)CC6)cc5[nH]4)cc3[nH]2)cc1OC = 101

Q: I'd like to know its growth. The molecule in question is CN(C)c1ccc(N=Nc2ccccn2)c(O)c1
Result: 38.9

Q: I'd like to know its growth. The molecule in question is COc1ccc(-c2cc(-c3ccc(Nc4ccnc5cc(Cl)ccc45)cc3)nc(N3CCOCC3)n2)cc1
Result: 9.38

====

tested on: OVCAR-3 ovarian; assay: NCI-60 one-dose screen, 48 h (100 = growth as untreated, 0 = no growth, -100 = all killed); settings: 10 µM unless noted
About 83,000 compounds went through this panel and 20% of them were active in at least one assay; those are over-represented in the sample as a whole.
Measurement Kind: growth (%)
All answers are understood in %, so give the number only.

COc1cc2nnc3c4cccnc4[nH]c3c2cc1OC = 30.5
O=C1c2cc3c(cc2-c2c1c1ccc(F)cc1c(=O)n2C[C@H](O)[C@H](O)[C@H](O)CO)OCO3 = -17
Brc1ccc(-c2csc(Nc3ccccn3)n2)cc1 = 82.9
COc1ccc(Nc2cc(C)nc(N3CCN(c4ccnc5cc(Cl)ccc45)CC3)n2)cc1 = 6.63
N#Cc1c(N)n(CCNC(=O)c2ccccc2)c2nc3ccccc3nc12 = 81.9
COc1ccc(-n2nc(C)c3c(Nc4ccc(NC(=O)Nc5cccc(C(F)(F)F)c5)cc4)ncnc32)cc1 = -31.6
CN1CCN(c2ccc(Nc3c4ccccc4nc4ccccc34)cc2)CC1 = 110
COc1cc2c(cc1-c1c(C)noc1C)ncc1nc(C3CCCC3)n([C@H](C)COC(F)F)c12 = 36.5
O=C1CC(=NCC(=O)n2c(-c3ccccc3)nc3ccccc32)NN1 = 103
O=C1NC(=Nc2ccc(O)cc2)S/C1=C\c1cccc(Cl)c1 = 30.1

Q: I'd like to know its growth. The compound in question is CC(=O)Nc1ccc(S(=O)(=O)Nc2cccc(-c3nc(-c4ccc(NC(=O)c5cccnc5)cc4Cl)no3)c2)cc1
Result: 20.7

Q: I'd like to know its growth. The compound in question is COc1cc(C2CC(=O)c3ccccc3N2)cc(OC)c1OC (centres undefined)
Result: 110

Q: I'd like to know its growth. The compound in question is Cc1ccc2oc(=O)cc(C3c4ccc([nH]4)C(c4cc(=O)oc5ccc(C)cc45)c4ccc([nH]4)C(c4cc(=O)oc5ccc(C)cc45)c4ccc([nH]4)C(c4cc(=O)oc5ccc(C)cc45)c4ccc3[nH]4)c2c1 (centres undefined)
Result: -65

Q: I'd like to know its growth. The compound in question is CC[N+](CC)=c1sc2c(s1)C(c1ccc(Cl)cc1)Oc1ccc(Cl)cc1-2 (centres undefined)
Result: 1.97
